# Protocol summary: sensitizers of A549 cells to miR-34 induction, primary screen, imaging, A549 dox-inducible miR-34, nuclei and caspase counts (AID 1347080)
# Experimental parameters: A549 miR-34 inducible, Hoechst nuclei count, 48 h; active compounds read low; cell number ratio, induced over uninduced
# fold change values compiled below
Just the number, please, no unit attached.

- C=C1C(=O)O[C@H]2[C@H]1CC/C(C)=C/CC[C@@]1(C)O[C@@H]21: 0.99
- COc1ccc(CCN(C)CCCN2CCc3cc(OC)c(OC)cc3CC2=O)cc1OC: 0.903
- CCCCOCCOCCOCc1cc2c(cc1CCC)OCO2: 0.878

Look up fold change for this compound: C=Cc1c(C)/c2[n-]/c1=C\c1[n-]c(c(CC)c1C)/C=c1\[n-]c3c(c1C)C(=O)C(C(=O)[O-])C=3c1[n-]c(c(C)c1CCC(=O)[O-])\C=2.[Cu].[Na+].[Na+] (stereo not drawn)
0.937

// next record CN(N=O)C(=O)NC1C(O)OC(CO)C(O)C1O (stereo not drawn)
0.895

Then what about the compound CCC(=O)c1ccc(O)cc1 ?
0.903

Also CCC1=C[C@@H]2CN(C1)Cc1c([nH]c3ccccc13)[C@@](C(=O)OC)(c1cc3c(cc1OC)N(C)[C@H]1[C@@](O)(C(=O)OC)[C@H](OC(C)=O)[C@]4(CC)C=CCN5CC[C@]31[C@@H]54)C2 ?
0.917

// query: O=C(CCc1ccc(O)cc1)c1c(O)cc(O)cc1O[C@@H]1O[C@H](CO)[C@@H](O)[C@H](O)[C@H]1O
0.867

###

# Protocol summary: ovarian cancer cell viability with rucaparib, profiling panel, oncology-focused library, rucaparib conditional (AID 1508598)
# Experimental parameters: patient-derived ovarian cancer cells, CellTiter-Glo viability, 144 h; at 5 µM; OCI-C5x cells; without rucaparib; active compounds read low
Property name: viability (%)
The response must be a number in % with no trailing unit.

// known answers, use as guide
* COc1cc2ncnc(Nc3ccc(F)c(Cl)c3)c2cc1OCCCN1CCOCC1 | 72
* CN(N=O)C(=O)N[C@@H]1[C@@H](O)[C@H](O)[C@@H](CO)O[C@@H]1O | 101
* Cc1ccc(-n2nc(C(C)(C)C)cc2NC(=O)Nc2ccc(OCCN3CCOCC3)c3ccccc23)cc1 | 144
* COc1cc(Nc2c(C#N)cnc3cc(OCCCN4CCN(C)CC4)c(OC)cc23)c(Cl)cc1Cl | 61.4

Now let's try a different one.
I have this compound here, Nc1cccc2c1CN(C1CCC(=O)NC1=O)C2=O (stereo not given) , and I need its recorded viability.
117

###

# Protocol summary: differential killing of epithelial or mesenchymal cells, primary screen, imaging, PC-3E GFP, TEM4-18 mCherry, co-culture (AID 1345086);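 also: normalised mesenchymal count divided by normalised epithelial count so high means epithelial killing; cells exposed to compound for 72 h before imaging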
# Experimental parameters: imaging cell counts, at 1 µM, actives lie on both sides, counts scaled to control wells, 1 = unselective
Rule: red/green cell ratio (normalised) below 1 gives Fulfilled. Equal to or above 1 gives Not fulfilled.

Is red/green cell ratio (normalised) strictly under 1 for the entry O=c1cc(-c2ccc(O)cc2)oc2cc(O)cc(O)c12 ?
Fulfilled

###

# Study system: 6-phosphogluconate dehydrogenase, decarboxylating (Homo sapiens) (UniProt P52209)
# Sequence (P52209 whole entry, looked up): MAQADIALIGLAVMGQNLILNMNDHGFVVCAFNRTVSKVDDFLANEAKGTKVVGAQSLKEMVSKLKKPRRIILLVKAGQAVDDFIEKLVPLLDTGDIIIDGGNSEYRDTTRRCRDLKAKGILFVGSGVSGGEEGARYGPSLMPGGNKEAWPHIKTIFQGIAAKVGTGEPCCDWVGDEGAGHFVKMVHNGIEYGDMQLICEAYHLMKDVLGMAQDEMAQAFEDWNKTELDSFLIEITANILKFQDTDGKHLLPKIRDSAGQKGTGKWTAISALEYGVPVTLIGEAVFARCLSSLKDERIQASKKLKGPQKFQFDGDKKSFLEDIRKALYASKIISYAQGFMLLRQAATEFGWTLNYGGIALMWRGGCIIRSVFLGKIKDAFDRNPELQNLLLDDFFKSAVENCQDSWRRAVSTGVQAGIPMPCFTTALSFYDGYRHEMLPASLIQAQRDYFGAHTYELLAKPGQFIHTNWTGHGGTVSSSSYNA
# Protocol summary: 6PGD enzyme inhibitors, primary screen, biochemical, human, recombinant enzyme, NADPH absorbance (AID 1159550)
# Experimental parameters: recombinant 6PGD, NADPH absorbance 341 nm; at 10 µM; active compounds read high
Property name: inhibition (%)
Output spec: scalar in %, unitless text.

Example results:
- CO[C@H]1C[C@H](O[C@H]2[C@H](C)[C@@H](O[C@@H]3O[C@H](C)C[C@H](N(C)C)[C@H]3OC(C)=O)[C@@H](C)C[C@@]3(CO3)C(=O)[C@H](C)[C@H](OC(C)=O)[C@@H](C)[C@@H](C)OC(=O)[C@@H]2C)O[C@@H](C)[C@@H]1OC(C)=O: -13
- C=C1C2CCC3(C)C(c4ccoc4)OC(=O)CC13OC1CC(OC(C)=O)C(C)(C)C(CC(=O)OC)C12C (centres undefined): 5.49
- C[N+]1(C)CCCC(OC(=O)C(O)(c2ccccc2)c2ccccc2)C1 (centres undefined): -19.7
- O[n+]1ccccc1[S-].O[n+]1ccccc1[S-].[Zn]: 12.7
- CC1(C)CCC2(C(=O)O)C(O)CC3(C)C(=CCC4C5(C)CCC(O)C(C)(C)C5CCC43C)C2C1 (centres undefined): -10.1

Then there is this compound:
// query inhibition value for entry O=c1ccc2ccc(O)cc2o1
5.77
